# Tested on: Plasmodium falciparum NF54 gametocytes
# measurement-protocol: viability index relative to DMSO control (fraction); higher = less gametocyte killing
# condition: gametocyte stage: Stage II viability index; 12.5 µM; incubation time: 72 h
Record form. Attribute: viability index. Fill in for each entry.
Numbers only.

As a guide, the following entries are already answered.
COc1ccc(C=C2SC(Nc3ccc(F)cc3)=NC2=O)c(OC)c1 ... 0.669
O=C(Nc1ccsc1C(=O)NC1CCCCC1)c1ccc(F)cc1 ... 0.729
O=C(NC1CCN(Cc2ccccc2)CC1)c1cc(C(=O)NC2CCN(Cc3ccccc3)CC2)cc(C(=O)NC2CCN(Cc3ccccc3)CC2)c1 ... 0.0649
COc1ccc(C(=O)NC(c2ccccc2Cl)c2cc(Cl)c3cccnc3c2O)cc1 (stereo not given) ... 0.0824

For each of the compounds below, state viability index.
1. CCN(CC)CCNc1ccnc2cc(Cl)ccc12
2. O=C1c2ccccc2C2=Nc3ccccc3SC(c3cccc(F)c3)C12 (stereo not given)
3. COc1ccc(C2Sc3ccccc3N=C3C2=C(O)c2ccccc23)cc1 (stereo not given)
4. COc1ccccc1N1CCN(C(CNS(=O)(=O)c2ccc(Cl)cc2)c2cccnc2)CC1 (stereo not given)
5. COc1ccc(-c2cc3c(SCC(=O)Nc4cc(C(F)(F)F)ccc4Cl)nccn3n2)cc1
6. COCCN(C(=O)Cc1cccs1)C(C(=O)NCc1ccc(OC)cc1)c1ccc(C(C)C)cc1 (stereo not given)

Ans.
1. 0.295
2. 0.869
3. 0.882
4. 0.564
5. 0.886
6. 0.801

----------
# System: Plasmodium falciparum NF54 gametocytes
# measurement-protocol: viability index relative to DMSO control (fraction); higher = less gametocyte killing
# condition: gametocyte stage: Stage IV viability index; 12.5 µM; incubation time: 72 h
parameter-measured: viability index
Answers are plain numbers.

COc1cccc(Cn2c(Oc3ccccc3)nc3c2c(=O)n(C)c(=O)n3C)c1 ... 1.06
CCN(CC)CCn1c(=N)n(CC(O)c2ccc(Cl)c(Cl)c2)c2ccccc21 (centres undefined) ... 0.0851
CCCc1c(CC)c(=N)c2ccccc2n1C ... 0.951

State the recorded viability index for every item in the following list.
1. O=C(NC1CCN(Cc2ccccc2)CC1)c1cc2nc(-c3ccc(Cl)s3)cc(C(F)(F)F)n2n1
2. Cc1ccc(Cn2c(N3CCC(C(=O)NCc4cccs4)CC3)nc3ccccc32)cc1

Ans.
1. 0.883
2. 0.544

For every item in the list below, what is its measured viability index?
1. CCOC(=O)c1cnc2ccc(Cl)cc2c1NCCCN(C)C
2. CC1=C(CC(=O)c2cccc([N+](=O)[O-])c2)C(=O)c2ccccc2C1=O
3. Cc1[nH]c(-c2ccc(F)cc2)cc1C(=O)NC1CCN(Cc2ccccc2)CC1
4. CCCCCn1c(=N)n(CC(O)COc2cccc(C)c2)c2ccccc21 (centres undefined)
5. COc1cc(OC)c(N(C)C(=O)c2cc3c(s2)-c2ccccc2S(=O)(=O)C3)cc1Cl
6. COc1ccc(C(=O)C(CCC(CNC(C)(C)C)C(=O)c2ccc(OC)cc2)CNC(C)(C)C)cc1 (centres undefined)

Ans.
1.03
0.196
0.881
0.459
0.131
0.418

----------
Could you please report measured viability index for the items listed next?
# Tested on: Plasmodium falciparum NF54 gametocytes
# measurement-protocol: viability index relative to DMSO control (fraction); higher = less gametocyte killing
# condition: gametocyte stage: Stage III viability index; 12.5 µM; incubation time: 72 h
Numbers only.

# example entries with known answers
CCOc1ccc(CN2CCN(CC(O)COc3ccc(OCC(O)CN4CCN(Cc5ccc(OCC)cc5)CC4)cc3)CC2)cc1 (stereo unspecified) ... 0.133
O=C(NC1CCN(Cc2ccccc2)CC1)c1cc(-c2cccnc2)nc2ccc(Cl)cc12 ... 0.989

For each of the compounds below, note its viability index.
1. COc1ccc2c(c1)OC(O)(C(F)(F)C(F)(F)F)CC2=O (stereo unspecified)
2. Nc1nc(Nc2cccc(F)c2)nc2ccccc12
3. CCOc1cc2c(cc1OCC)C(c1cc(Cl)ccc1O)NCC2 (stereo unspecified)

Ans.
1: 1.15; 2: 0.725; 3: 0.488

----------
# System: Plasmodium falciparum NF54 gametocytes
# measurement-protocol: viability index relative to DMSO control (fraction); higher = less gametocyte killing
# condition: gametocyte stage: Stage I viability index; 12.5 µM; incubation time: 72 h
Could you please report measured viability index for the items listed next?
One number for each entry.

CCOC(=O)C1CCN(C(=O)CN2C(=O)c3ccccc3C2c2c[nH]c3ccccc23)CC1 (stereo not given) ... 1.39
CCOc1ccccc1NC(=O)CN1CCN(C(=O)c2ccco2)CC1 ... 1.06
Cc1cc(N2CCCC2)nc(Nc2ccc(NC(=O)CCc3ccccc3)cc2)n1 ... 0.0734
FC(F)(F)c1cccc(CNC2CCN(CCc3ccccc3)CC2)c1 ... 0.0431

Could you now look at the following molecule, please?
Qu. Find the recorded viability index belonging to `CCOC(=O)c1cn(CC)c2cc(N3CCCCC3)c(F)cc2c1=O` and report it.
Ans. 0.592

----------
Give measured viability index for each item. Keep answers brief.
# Test system: Plasmodium falciparum NF54 gametocytes
# measurement-protocol: viability index relative to DMSO control (fraction); higher = less gametocyte killing
# condition: gametocyte stage: Stage II viability index; 12.5 µM; incubation time: 72 h
Give bare numbers.

Take a look at these entries with their results.
O=C(CCl)NCCOc1ccc(Cl)cc1Cl ... 0.629
CC(C)OCc1cc(CN2CCN(c3cccc(Cl)c3)CC2)c(O)c2ncccc12 ... 0.0328
O=C(NNc1cc(N2CCCC2)nc(N2CCCC2)n1)c1ccccc1 ... 0.00749
COc1ccc(-n2ccnc2SCC(=O)Nc2cc(C)ccc2C)c(OC)c1 ... 0.949
CCn1nc(-c2ccc(C(=O)OC)cc2)nc2c(=O)n(C)c(=O)nc1-2 ... 0.284
CCOc1ccc(Nc2c3ccccc3nc3ccccc23)cc1 ... 0.165
CCOC(=O)c1cnc2ccc(OC)cc2c1Nc1ccc(N2CCN(C)CC2)cc1 ... 0.479
Cc1ccc(OCCCCCCNCCO)c(C)c1 ... 1.04

Items follow; give viability index for each.
1. CCOc1cc(Cl)c(C(C)NC(=O)c2cccc(OC)c2)cc1OCC (configuration not stated)
2. CCOC(=O)c1c(NC(=O)c2ccccc2)sc2c(O)c(CN(CC)CC)ccc12
3. Cc1ccc(N2C(=O)C3C(C2=O)C2(c4ccccc4)C(=O)C3(c3ccccc3)C(c3ccccc3)=C2c2ccccc2)cc1 (configuration not stated)
4. O=C(NC1CCN(Cc2ccccc2)CC1)c1cc(-c2ccncc2)nc2ccc(Cl)cc12
5. COc1ccc(C(=O)C2CC2c2ccc(Cl)cc2)cc1 (configuration not stated)
6. O=C(O)C1Cc2c([nH]c3ccccc23)C(c2ccc(Cl)cc2Cl)N1 (configuration not stated)
7. Cc1ccc(Cl)cc1N1CCN(CCCNC(=O)C2CCN(c3nc4ccccc4[nH]3)CC2)CC1

Ans.
1. 0.121
2. 0.129
3. 0.916
4. 0.662
5. 0.968
6. 0.891
7. 0.517

----------
# Tested on: Plasmodium falciparum NF54 gametocytes
# measurement-protocol: viability index relative to DMSO control (fraction); higher = less gametocyte killing
# condition: gametocyte stage: Stage III viability index; 12.5 µM; incubation time: 72 h
Kindly supply the reported viability index values for the records listed here.
Numbers only.

Example entries begin here.
COc1cccc(C(=O)Nc2ccc(-c3nc4ccccc4[nH]3)cc2)c1 ... 0.852
Clc1ccc2c(N3CCCC3)ccnc2c1 ... 0.915
COC(=O)c1ccc(Cl)c2c1C1C=CCC1C(c1cccc3ccccc13)N2 (configuration not stated) ... 1.14

Hi, could you look up viability index for each item in my list?
1. Cc1sc(NC(=O)c2ccco2)c(C(c2cccnc2)N2CCC(Cc3ccccc3)CC2)c1C (configuration not stated)
2. CCC(=O)Nc1nnc(Cc2ccc(OC)c(OC)c2)s1
3. Oc1ccccc1CN1CCC2(CCCN(Cc3ccccc3F)C2)C1 (configuration not stated)
4. CCN(CC)CCn1c(=N)n(CC(O)c2ccc(Cl)c(Cl)c2)c2ccccc21 (configuration not stated)
5. CCN(CC)CCCNc1ccnc2cc3ccccc3cc12

Ans.
1: 0.261; 2: 0.901; 3: 0.509; 4: 0.0608; 5: 0.972

----------
# Test system: Plasmodium falciparum NF54 gametocytes
# measurement-protocol: viability index relative to DMSO control (fraction); higher = less gametocyte killing
# condition: gametocyte stage: Stage II viability index; 12.5 µM; incubation time: 72 h
I'd appreciate it if you could supply viability index values for the items below.

CN1CCN(c2c3c(c(C#N)c4nc5ccccc5n24)CCC3)CC1 ... 0.865
OC(Cn1nnc2ccccc21)Cn1c2ccc(Br)cc2c2cc(Br)ccc21 (stereo not given) ... 0.684
COc1ccc(Nc2nc(NCc3ccccc3)c3ccccc3n2)cc1 ... 0.107
COc1ccc(C(=O)NC(c2ccc(Cl)cc2Cl)c2cc(Cl)c3cccnc3c2O)cc1 (stereo not given) ... 0.0341

Now for a further molecule.
Qu. Please look up its viability index: COc1cccc(C2(C)Nc3ccccc3-c3nc4ccccc4n32)c1 (stereo not given)
Ans. 0.0986
